- tested-on: IP receptor (Homo sapiens)
- Sequence (P43119 whole entry): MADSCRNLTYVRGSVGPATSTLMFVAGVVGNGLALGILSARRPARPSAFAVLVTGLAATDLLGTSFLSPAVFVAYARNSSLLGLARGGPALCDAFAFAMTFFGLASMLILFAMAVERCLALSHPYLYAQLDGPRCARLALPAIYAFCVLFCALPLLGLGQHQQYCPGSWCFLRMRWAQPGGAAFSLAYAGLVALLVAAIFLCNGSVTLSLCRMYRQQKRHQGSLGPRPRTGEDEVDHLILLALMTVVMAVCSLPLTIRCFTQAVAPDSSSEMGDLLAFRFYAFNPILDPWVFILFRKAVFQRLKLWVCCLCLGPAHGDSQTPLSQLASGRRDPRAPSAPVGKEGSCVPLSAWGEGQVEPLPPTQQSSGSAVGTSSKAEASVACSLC
- protocol-description: cAMP accumulation in CHO cells stably expressing the IP receptor (CHO-IP), Perkin Elmer AlphaScreen assay
- run-conditions: agonist activity, 1 hour at room temperature
Reported EC50 values for the following compounds.
I only need the number, in nM, no unit after it.

Some compounds with recorded EC50:
- compound: "Cc1ccc(-c2nc3c(nc2-c2ccc(C)cc2)N(CCCC/C=C2/SC(=O)NC2=O)CCC3)cc1 [Example 4]"
  tested-on: "IP receptor (Homo sapiens)"
  EC50, nM: 2
- compound: "Cc1ccc(-c2nc3c(nc2-c2ccc(C)cc2)N(CCCCc2cc(O)no2)CCC3)cc1 [Example 8]"
  tested-on: "IP receptor (Homo sapiens)"
  EC50, nM: 34.3
- compound: "Cc1ccc(-c2nc3c(nc2-c2ccc(C)cc2)N(CCCCC2SC(=O)NC2=O)CCC3)cc1 (single isomer, unassigned) [1(a)]"
  tested-on: "IP receptor (Homo sapiens)"
  EC50, nM: 3.71
- compound: "Cc1ccc(-c2nc3c(nc2-c2ccc(C)cc2)N(CCCCC2CC(=O)NO2)CCC3)cc1 (centres unmarked) [Example 7]"
  tested-on: "IP receptor (Homo sapiens)"
  EC50, nM: 2.86
- compound: "Cc1ccc(-c2nc3c(nc2-c2ccc(C)cc2)N(CCCCCC2=C(O)CCC2=O)CCC3)cc1 [Example 3]"
  tested-on: "IP receptor (Homo sapiens)"
  EC50, nM: 7.68

Incoming: Which measured EC50 belongs to Cc1ccc(-c2nc3c(nc2-c2ccc(C)cc2)N(CCCCC2SC(=O)NC2=O)CCC3)cc1 (single isomer, unassigned) [1(b)] , tested on IP receptor (Homo sapiens)?
Outgoing: 12

Incoming: Which measured EC50 belongs to Cc1ccc(-c2nc3c(nc2-c2ccc(C)cc2)N(CCCCC2SC(=O)NC2=O)CCC3)cc1 (racemic) [Example 1] , tested on IP receptor (Homo sapiens)?
Outgoing: 8.91

Incoming: Which measured EC50 belongs to Cc1ccc(-c2nc3c(nc2-c2ccc(C)cc2)N(CCCCCc2noc(=O)[nH]2)CCC3)cc1 [Example 6.1] , tested on IP receptor (Homo sapiens)?
Outgoing: 15.3
